Numbers sourced from paper PMC10714400.

- Tested on: HEK293 cells
- assay.overview: Cell viability assay by Alamar blue
- measurement.context: read-out: Toxicity on HEK293 cells; CSV
Where a SMILES comes first, the peptide text is derived from it. [ ]: non-standard residue; d: D form. Nlys = NCCCCNCC(=O)O
endpoint.label: IC50 (µM)
The figure you give is taken to be in µM; do not add the unit.

| compound | IC50 / µM |
| --- | --- |
| CC(C)C[C@H](NC(=O)[C@H](CC(C)C)NC(=O)[C@H](CC(C)C)NC(=O)[C@@H](CCCCN)NC(=O)[C@H](CC(C)C)NC(=O)[C@H](CC(C)C)NC(=O)[C@@H](CCCCN)NC(=O)[C@H](CC(C)C)NC(=O)[C@H](CC(C)C)NC(=O)[C@@H](CCCCN)NC(=O)[C@H](N)CCCCN)C(N)=O [ln69, kkLLkLLkLLL, reference compound] (H-[dK][dK]LL[dK]LL[dK]LLL-NH2) | 45 |

// next entry
Input: What value of IC50 has been reported for the following compound? CC(C)C[C@H](NC(=O)[C@H](CC(C)C)NC(=O)[C@H](CC(C)C)NC(=O)[C@H](CCCCN)NC(=O)[C@H](CC(C)C)NC(=O)[C@H](CC(C)C)NC(=O)CN(CCCCN)C(=O)[C@H](CC(C)C)NC(=O)[C@H](CC(C)C)NC(=O)CN(CCCCN)C(=O)CNCCCCN)C(N)=O [EB6, kkLLkLLKLLL] (H-[Nlys][Nlys]LL[Nlys]LLKLLL-NH2)
Output: 54

---

- assay.overview: Circular dichroism, α-helical content
- Type: physicochemical
- measurement.context: Table S2; 0.1 mg/mL, 10 mM phosphate buffer pH 7.4, 5 mM DPC
Where a SMILES comes first, the peptide text is derived from it. [ ]: non-standard residue; d: D form. Nleu = CC(C)CNCC(=O)O; Nlys = NCCCCNCC(=O)O
Below, each entry is listed with its recorded CD %α with 5 mM DPC.
// note: answer is a bare numeric in %

Examples with their reported CD %α with 5 mM DPC follow.
| compound | quantitative.result |
| --- | --- |
| CC(C)C[C@H](NC(=O)[C@H](CC(C)C)NC(=O)[C@H](CCCCN)NC(=O)[C@@H](N)CCCCN)C(=O)N[C@@H](CCCCN)C(=O)N[C@@H](CC(C)C)C(=O)N[C@@H](CC(C)C)C(=O)N[C@@H](CCCCN)C(=O)N(CC(=O)N(CC(=O)N(CC(N)=O)CC(C)C)CC(C)C)CC(C)C [EB3] (H-KKLLKLLK[Nleu][Nleu][Nleu]-NH2) | 13 |
| CC(C)C[C@H](NC(=O)CN(CCCCN)C(=O)[C@H](CC(C)C)NC(=O)[C@H](CC(C)C)NC(=O)[C@H](CCCCN)NC(=O)[C@H](CC(C)C)NC(=O)[C@H](CC(C)C)NC(=O)[C@H](CCCCN)NC(=O)CNCCCCN)C(=O)N[C@@H](CC(C)C)C(=O)N(CC(N)=O)CC(C)C [EB2, kKLLKLLkLLl] (H-[Nlys]KLLKLL[Nlys]LL[Nleu]-NH2) | 11 |
| CC(C)C[C@H](NC(=O)[C@H](CC(C)C)NC(=O)[C@H](CC(C)C)NC(=O)[C@@H](CCCCN)NC(=O)[C@H](CC(C)C)NC(=O)[C@H](CC(C)C)NC(=O)[C@@H](CCCCN)NC(=O)[C@H](CC(C)C)NC(=O)[C@H](CC(C)C)NC(=O)[C@@H](CCCCN)NC(=O)[C@H](N)CCCCN)C(N)=O [ln69, kkLLkLLkLLL, reference compound] (H-[dK][dK]LL[dK]LL[dK]LLL-NH2) | 61 |
| CC(C)C[C@H](NC(=O)CN(CC(C)C)C(=O)[C@H](CCCCN)NC(=O)CNCCCCN)C(=O)N(CCCCN)CC(=O)N[C@@H](CC(C)C)C(=O)N(CC(=O)N[C@@H](CCCCN)C(=O)N(CC(=O)N[C@@H](CC(C)C)C(=O)N(CC(N)=O)CC(C)C)CC(C)C)CC(C)C [EB10, kKlLkLlKlLl] (H-[Nlys]K[Nleu]L[Nlys]L[Nleu]K[Nleu]L[Nleu]-NH2) | 11 |
| CC(C)C[C@H](NC(=O)[C@H](CC(C)C)NC(=O)[C@H](CC(C)C)NC(=O)[C@H](CCCCN)NC(=O)[C@H](CC(C)C)NC(=O)[C@H](CC(C)C)NC(=O)CN(CCCCN)C(=O)[C@H](CC(C)C)NC(=O)[C@H](CC(C)C)NC(=O)CN(CCCCN)C(=O)CNCCCCN)C(N)=O [EB6, kkLLkLLKLLL] (H-[Nlys][Nlys]LL[Nlys]LLKLLL-NH2) | 41 |

Input: May I ask what CD %α with 5 mM DPC has been recorded for CC(C)C[C@H](NC(=O)[C@H](CCCCN)NC(=O)[C@@H](N)CCCCN)C(=O)N[C@@H](CC(C)C)C(=O)N[C@@H](CCCCN)C(=O)N(CC(=O)N(CC(=O)N(CCCCN)CC(=O)N(CC(=O)N(CC(=O)N(CC(N)=O)CC(C)C)CC(C)C)CC(C)C)CC(C)C)CC(C)C [EB4, KKLLKllklll] (H-KKLLK[Nleu][Nleu][Nlys][Nleu][Nleu][Nleu]-NH2) ?
Output: 9

---

Listed here are compounds together with their documented MIC E. coli W3110 […] 8.5.
- Tested on: E. coli W3110
- measurement.context: Table S2; […] MH, pH 8.5
Where a SMILES comes first, the peptide text is derived from it. [ ]: non-standard residue; d: D form. Nleu = CC(C)CNCC(=O)O; Nlys = NCCCCNCC(=O)O
Lab book: enter the figure in µg/mL, no units written.

| compound | assay.system | unit.symbol | MIC E. coli W3110 […] 8.5 |
| --- | --- | --- | --- |
| CC(C)C[C@H](NC(=O)[C@H](CCCCN)NC(=O)CNCCCCN)C(=O)N[C@@H](CC(C)C)C(=O)N[C@@H](CCCCN)C(=O)N[C@@H](CC(C)C)C(=O)N[C@@H](CC(C)C)C(=O)N[C@@H](CCCCN)C(=O)N[C@@H](CC(C)C)C(=O)N[C@@H](CC(C)C)C(=O)N(CC(N)=O)CC(C)C [EB1] (H-[Nlys]KLLKLLKLL[Nleu]-NH2; N-terminus assumed) | E. coli W3110 | µg/mL | 1 |

Next compound, MIC E. coli W3110 […] 8.5 to be filled in.
Input: Name the recorded MIC E. coli W3110 […] 8.5 for CC(C)C[C@H](NC(=O)[C@H](CC(C)C)NC(=O)[C@H](CC(C)C)NC(=O)[C@H](CCCCN)NC(=O)[C@H](CC(C)C)NC(=O)[C@H](CC(C)C)NC(=O)CN(CCCCN)C(=O)[C@H](CC(C)C)NC(=O)[C@H](CC(C)C)NC(=O)CN(CCCCN)C(=O)CNCCCCN)C(N)=O [EB6, kkLLkLLKLLL] (H-[Nlys][Nlys]LL[Nlys]LLKLLL-NH2) .
Output: 2

---

Listed next: entries and their corresponding MIC E. coli W3110, […] MH at pH 8.5.
- Tested on: E. coli W3110
- measurement.context: CSV; […] MH at pH 8.5
Where a SMILES comes first, the peptide text is derived from it. [ ]: non-standard residue; d: D form. Nleu = CC(C)CNCC(=O)O; Nlys = NCCCCNCC(=O)O
Please respond with the number in ug/mL and leave the unit unwritten.

Solved cases (2 shown):
| compound | MIC E. coli W3110, […] MH at pH 8.5 (ug/mL) |
| --- | --- |
| CC(C)C[C@H](NC(=O)[C@H](CC(C)C)NC(=O)[C@H](CC(C)C)NC(=O)CN(CCCCN)C(=O)[C@H](CC(C)C)NC(=O)[C@H](CC(C)C)NC(=O)CN(CCCCN)C(=O)[C@H](CC(C)C)NC(=O)[C@H](CC(C)C)NC(=O)CN(CCCCN)C(=O)CNCCCCN)C(N)=O [EB7, kkLLkLLkLLL] (H-[Nlys][Nlys]LL[Nlys]LL[Nlys]LLL-NH2) | 1 |
| CC(C)CN(CC(N)=O)C(=O)CN(CC(C)C)C(=O)CN(CC(C)C)C(=O)[C@H](CCCCN)NC(=O)CN(CC(C)C)C(=O)CN(CC(C)C)C(=O)[C@H](CCCCN)NC(=O)CN(CC(C)C)C(=O)CN(CC(C)C)C(=O)[C@H](CCCCN)NC(=O)[C@@H](N)CCCCN [EB8, KKllKllKlll] (H-KK[Nleu][Nleu]K[Nleu][Nleu]K[Nleu][Nleu][Nleu]-NH2) | 3 |

Turning now to a further record.
Input: Quick check: MIC E. coli W3110, […] MH at pH 8.5 of CC(C)C[C@H](NC(=O)[C@H](CC(C)C)NC(=O)[C@H](CC(C)C)NC(=O)[C@@H](CCCCN)NC(=O)[C@H](CC(C)C)NC(=O)[C@H](CC(C)C)NC(=O)[C@@H](CCCCN)NC(=O)[C@H](CC(C)C)NC(=O)[C@H](CC(C)C)NC(=O)[C@@H](CCCCN)NC(=O)[C@H](N)CCCCN)C(N)=O [ln69, kkLLkLLkLLL, reference compound] (H-[dK][dK]LL[dK]LL[dK]LLL-NH2) ?
Output: 2
